Reported values of pKi for individual entries
# method description: Binding affinity towards guinea pig Opioid receptor kappa 1 using radioligand [3H]U69,593
pKi: −log10 of the molar value.
recorded endpoint: pKi

CN1CC[C@]23c4c5ccc(C(N)=O)c4OC2C(O)C=C[C@H]3[C@H]1C5 (stereo partly drawn)	5.72
CNC(=O)c1ccc2c3c1OC1C(O)C=C[C@H]4[C@@H](C2)N(C)CC[C@]314 (stereo partly drawn)	< 5.00
CN(C)C(=O)c1ccc2c3c1OC1C(O)C=C[C@H]4[C@@H](C2)N(C)CC[C@]314 (stereo partly drawn)	< 5.00
